These measurements were taken from paper PMC11300601.

Each entry below lists one item and its recorded IC50 value.
Test system: Ba/F3 ETV6-NTRK3-G696A
Test: Ba/F3 cell viability (anti-proliferative activity)
Type: cell-based, mouse
Conditions: Mus musculus, BaF3
Description: NTRK fusion-positive colorectal cancer cell lines IRC, Kor1, and KM12 were utilized. The IRC and the KM12 cell lines were obtained from Dr. Bardelli and cultured according to the described protocols. […] CellTiter-Glo Cell Viability Assays (Promega) and crystal violet clonogenic assays were performed on primary NTRK fusion-positive colorectal cancer cell lines, mouse Ba/F3 cell lines and isogenic mouse glioma cell lines. […] Absorbance was read at 490 nm in accordance with Promega’s protocol. […]
Number only, in nM; omit the unit.

Hello, please tell me recorded IC50 for this one: `O=C(Nc1cnn2ccc(N3CCC[C@@H]3c3cc(F)ccc3F)nc12)N1CC[C@H](O)C1` 45.7

Hello, please tell me recorded IC50 for this one: `C[C@@H]1CCc2ncc(F)cc2[C@H]2CCCN2c2ccn3ncc(c3n2)C(=O)N1` 5.1

Hello, please tell me recorded IC50 for this one: `C[C@H]1CNC(=O)c2cnn3ccc(nc23)N[C@H](C)c2cc(F)ccc2O1` 2.84

* * *

Experiment: Brain distribution in rats (plasma, brain, CSF by LC-MS/MS)
Type: in vivo, Male Sprague Dawley (SD) rats
Conditions: male, Sprague-Dawley, rat, in vivo, po, 10 mg/kg, Plasma concentration (ng/mL ± SD)
METRIC_NAME: concentration at 2 h (ng/mL)
Number only, in ng/mL; omit the unit.

Hello, please tell me recorded concentration at 2 h for this one: `C[C@@H]1CCc2ncc(F)cc2[C@H]2CCCN2c2ccn3ncc(c3n2)C(=O)N1` 1470

Hello, please tell me recorded concentration at 2 h for this one: `C[C@H]1CNC(=O)c2cnn3ccc(nc23)N[C@H](C)c2cc(F)ccc2O1` 1140

* * *

Each entry below lists one item and its recorded IC50 value.
Test system: IRC-I-XL
Assay: CellTiter-Glo cell viability, IRC-I-XL primary CRC cell line (LMNA-NTRK1)
Type: cell-based, human
Settings: Homo sapiens, LMNA-NTRK1 fusion, 72 h, read-out: IC50 against IRC-I-XL cell line
Number only, in nM; omit the unit.

C[C@@H]1CCc2ncc(F)cc2[C@H]2CCCN2c2ccn3ncc(c3n2)C(=O)N1 [Selitrectinib, selitrectinib]    4.6

Hello, please tell me recorded IC50 for this one: O=C(Nc1cnn2ccc(N3CCC[C@@H]3c3cc(F)ccc3F)nc12)N1CC[C@H](O)C1 [Larotrectinib, larotrectinib] 13.4
